Test system: LXFL 529
Assay: NCI tumour cell line growth inhibition, 48 h
The source made the active and inactive calls. Cut-off read from the data, not from the text of the source: active = GI50 up to about 1.1 µM and inactive = higher.
I'd be grateful if you could share measured GI50 for these entries.

Quote GI50 reported for O=C(O)C1CCC(=O)N1C(=O)COc1cc(Cl)c(Cl)cc1Cl (stereo unspecified) please. > 100 µM (inactive)

Quote GI50 reported for Nc1nc(N)c(N=O)c(Nc2ccc(I)cc2)n1 please. 9.93 µM (inactive)

Quote GI50 reported for CC1CCCC(C(=O)/C(=C/c2cccc(Cl)c2)C(=O)C(=O)O)C1 (stereo unspecified) please. 19.7 µM (inactive)

Quote GI50 reported for CC1Nc2ccccc2NC1C=C(C#N)C#N (stereo unspecified) please. 13 µM (inactive)

Quote GI50 reported for c1cc2[se][se]c3c4cccc5[se][se]c(c(c1)c23)c54 please. > 100 µM (inactive)

Quote GI50 reported for Cn1cnc2[nH]c(=O)[nH]c(=S)c21 please. > 100 µM (inactive)

* * *

Test system: MCF7
Test: NCI tumour cell line growth inhibition, 48 h
The source made the active and inactive calls. Cut-off read from the data, not from the text of the source: active = GI50 up to about 1.1 µM and inactive = higher.
Respond only with the outcome that fits, drawn from active, inactive

Lab log entry: CC1CN=C(Nc2ccc(S(N)(=O)=O)cc2)S1 (stereo unspecified) — outcome as called in the assay? inactive

Lab log entry: CCOC(=O)C1Cc2c(cc3c4c(cccc24)N(C(C)=O)C3)N(C)C1 (stereo unspecified) — outcome as called in the assay? inactive

Lab log entry: COC(=O)c1c(O)ccc2c1c1c(n2CCc2ccccc2)C(=O)c2ccccc2C1=O — outcome as called in the assay? inactive

Lab log entry: O=C(CC1(O)CCCCC1)OC1CCCC1 — outcome as called in the assay? inactive

Lab log entry: CCN(CC)CCNc1ccc2nc(C)n3c4ccc(OC)cc4c(=O)c1c23 — outcome as called in the assay? active

Lab log entry: Cc1cccc(C)c1NC(=O)C(C#N)C1=C(Cl)C(=O)c2ccccc2C1=O (stereo unspecified) — outcome as called in the assay? inactive

Lab log entry: COc1ccc(-c2c3ccccc3c(-c3ccc(OCCBr)cc3)c3ccccc23)cc1 — outcome as called in the assay? inactive

Lab log entry: COCOc1ccc(C2(O)Oc3cc(OCOC)ccc3C2C)c(O)c1 (stereo unspecified) — outcome as called in the assay? inactive

Lab log entry: Nc1ccc2c(c1)N(C(=O)CCCC(=O)N1CC(CCl)c3ccc(N)cc31)CC2CCl (stereo unspecified) — outcome as called in the assay? active

Lab log entry: CCOC(=O)/C=C/C(Br)=C(Br)/C=C/C(=O)OCC — outcome as called in the assay? inactive

Lab log entry: O=C(c1ccccc1)C1C(c2ccccc2)N1S(=O)(=O)c1ccccc1 (stereo unspecified) — outcome as called in the assay? inactive

* * *

I'd be grateful if you could share measured GI50 for these entries.
System: M14
Assay: NCI tumour cell line growth inhibition, 48 h
Calls of active or inactive are those of the source. Rule as the data show it: active = GI50 up to about 1.1 µM and inactive = higher.

Quote GI50 reported for CC1OC(OC2C(OC(=O)[C@@H]3CC(C)(C)C[C@@H]4C5=CC[C@@H]6[C@@]7(C)C[C@H](O)[C@H](OC8OC(CO)C(O)C(O)C8O)[C@@](C)(CO)C7[C@H](O)C[C@@]6(C)[C@]5(C)C[C@@H](O)[C@H]43)OCC(O)C2O)C(O)C(O)C1O (stereo not given in full) please. > 15 µM (inactive)

Quote GI50 reported for COc1cccc(N2C(=O)[C@H]3CC(C)c4c([nH]c5ccccc45)[C@H]3C2=O)c1 (stereo not given in full) please. > 100 µM (inactive)

Quote GI50 reported for CCOC(=O)C(NC(=O)CC(C)C)(N1CCN(c2cc3c(cc2F)c(=O)c(C(=O)O)cn3C2CC2)CC1)C(F)(F)F (stereo not given) please. 20 µM (inactive)

Quote GI50 reported for Cc1ccc(C(=O)Nc2ccc(S(=O)(=O)O)c3cc(S(=O)(=O)O)cc(S(=O)(=O)O)c23)cc1N please. > 100 µM (inactive)

Quote GI50 reported for O=C1CC(C(CC(=O)c2ccccc2)c2ccccc2)C(=O)c2ccccc2N1 (stereo not given) please. 33.7 µM (inactive)

Quote GI50 reported for Cc1ccccc1-n1c(C)nc2c1C(=O)c1ccccc1C2=O please. 42 µM (inactive)

Quote GI50 reported for c1ccc2c(c1)CCc1c(-c3ccncc3)n[nH]c1-2 please. 22.8 µM (inactive)

Quote GI50 reported for COc1cccc(/C=C/c2ccnc3ccccc23)c1OC please. > 10 µM (inactive)

Quote GI50 reported for NC(CCCCN/C=C1/N=C(c2ccccc2)OC1=O)C(=O)O (stereo not given) please. > 100 µM (inactive)

Quote GI50 reported for CC(C)Oc1cccc(N2C(CCc3c[nH]c4ccc(Br)cc34)=NS(=O)(=O)c3cnccc32)c1 please. 32.5 µM (inactive)
